Origin of values: patent US5328902A

# System: E. coli #311 (MP)
# ASSAY TEXT: MIC, agar dilution
# Format: cell-based
# SETUP CONDITIONS: E. coli #311 (MP)
Where a name gives a salt, the structure may show the parent alone.
QUANTITY: MIC (µg/mL)
Respond with the bare value in µg/mL.

Example entries begin here.
CN(C)c1cc(NC(=O)C2CCCN2C(=O)C(F)(F)F)c(O)c2c1CC1CC3[C@H](N(C)C)C(O)=C(C(N)=O)C(=O)[C@@]3(O)C(O)=C1C2=O.Cl.Cl (some centres unmarked) | 8
CN(C)c1cc(NC(=O)CNCCO)c(O)c2c1CC1CC3C(N(C)C)C(O)=C(C(N)=O)C(=O)C3(O)C(O)=C1C2=O.Cl (centres unmarked) | 16
CN(C)c1cc(NC(=O)CNOCc2ccccc2)c(O)c2c1C[C@H]1C[C@H]3[C@H](N(C)C)C(O)=C(C(N)=O)C(=O)[C@@]3(O)C(O)=C1C2=O | 16

Which value of MIC has been reported for CN(C)c1cc(NC(=O)CNCCF)c(O)c2c1CC1CC3C(N(C)C)C(O)=C(C(N)=O)C(=O)C3(O)C(O)=C1C2=O (centres unmarked) in the records?
16

Which value of MIC has been reported for CN(C)c1cc(NC(=O)CNCCCCO)c(O)c2c1C[C@H]1C[C@H]3[C@H](N(C)C)C(O)=C(C(N)=O)C(=O)[C@@]3(O)C(O)=C1C2=O in the records?
32

Which value of MIC has been reported for CN(C)c1cc(NC(=O)CNCCN2CCCCC2)c(O)c2c1C[C@H]1C[C@H]3[C@H](N(C)C)C(O)=C(C(N)=O)C(=O)[C@@]3(O)C(O)=C1C2=O in the records?
16

Which value of MIC has been reported for CCCCCCCNCC(=O)Nc1cc(N(C)C)c2c(c1O)C(=O)C1=C(O)[C@]3(O)C(=O)C(C(N)=O)=C(O)[C@@H](N(C)C)C3CC1C2 (some centres unmarked) [J, dihydrochloride] in the records?
2
